Examples of molecules with documented growth follow.
# System: K-562 leukemia
# assay details: NCI-60 one-dose screen, 48 h (100 = growth as untreated, 0 = no growth, -100 = all killed)
# study conditions: 10 µM unless noted
# Protocol: Cells are grown in 96 well plates and exposed to the test compound for 48 hours. Compounds are tested at a single concentration, which is 10^-5 M for most compounds. The reported endpoint is percent growth (GI% or GIPRCNT), where numbers from 0 - 100% represent growth inhibition, and numbers from -100% - 0 represent cell death. For example, a value of 40 represents 60% growth inhibition. A value of 0 means no net growth occurred over the course of the experiment. […]
This is part of a sample that, as a whole, favours compounds with a hit. Of some 83,000 tested, about 20% had one in any assay. Activity calls are given as the source filed them. How the source made its calls: active means growth percent below 10; inactive means the rest.
quantity: growth

molecule	subject of test	data value
COC(=O)C1CC(=O)N(C(=O)Nc2ccc(Cl)cc2Cl)C1 (stereo not given)	K-562 leukemia	92.8% (inactive)
C=CCC(CCC(CC=C)C(=O)OCC)C(=O)OCC (stereo not given)	K-562 leukemia	108% (inactive)
CN1CCN(Cc2ccc(NC(=O)c3ccc(C#Cc4c(N)ncc5ccc(F)cc45)cc3)cc2C(F)(F)F)CC1	K-562 leukemia	-44.5% (active)
[2H]c1nc(=Nc2cc(NC(=O)C=C)c(N(C)CCN(C)C)cc2OC)[nH]c(-c2cn(C([2H])([2H])[2H])c3ccccc23)c1[2H]	K-562 leukemia	-18.3% (active)
CCOC(=O)c1ccc2n1CCCc1cnc(NC(C)=O)nc1-2	K-562 leukemia	102% (inactive)
